Biological target: Schistosoma mansoni thioredoxin glutathione reductase (TGR) (UniProt Q962Y6)
Assay: qHTS Assay for the Inhibitors of Schistosoma Mansoni Peroxiredoxins; also: nearly all actives have a fitted effect of over 60% in size
Conditions: purified TGR, DTNB reduction, TNB absorbance 405 nm; series mostly up to 114 µM
The campaign covered roughly 360,000 compounds. About 11,000 (3.1%) were called active. Not shown: some 4% with an inconclusive outcome. Calls follow the shape of the dose curve; as a rule, active = well fitted inhibition curve with a large enough effect; inconclusive = small, poorly fitted or top-dose-only effect; inactive = no such curve, though single readings can be large or run the other way. Only a selection was taken, and actives are over-represented in it overall.
Valid outcomes are listed here; reply with one: active, inactive

> print(dat)
                                   molecule                             system.tested  class.label
1  CCn1c(CNC(=O)c2ccc(OC)c(OC)c2)nnc1SCC(=O)Nc1ccccc1  Schistosoma mansoni thioredoxin glutathione reductase (TGR) (UniProt Q962Y6)     inactive

Query :: Recorded test outcome, item CCn1c(SC)nc(O)c(C(c2ccc(OC)c(O)c2)c2c(O)nc(SC)n(CC)c2=O)c1=O
Result :: active

Query :: Would you mind telling me which call this test gave Cc1c(Cl)cccc1NC(=O)NCCCN1CCCC1=O ?
Result :: inactive

Query :: Record lookup: outcome of this test for CCO[C@H]1OC(C(=O)NCc2ccccc2)=C[C@@H](c2coc3ccccc3c2=O)[C@@H]1CCCO ?
Result :: inactive

Query :: For Clc1cc(-c2ccc(/C=N/n3cnnc3)o2)ccc1Br , which call appears in the assay record?
Result :: inactive

Query :: So what was the verdict on CCOc1cccc(CC(=O)N2CCc3c([nH]c4ccccc34)C2c2ccc(OC)cc2)c1OCC (stereo unspecified) in this test?
Result :: inactive

---

Target: Schistosoma mansoni thioredoxin glutathione reductase (TGR) (UniProt Q962Y6)
Assay: qHTS Assay for the Inhibitors of Schistosoma Mansoni Peroxiredoxins; also: nearly all actives have a fitted effect of over 60% in size
Conditions: purified TGR, DTNB reduction, TNB absorbance 405 nm; series mostly up to 114 µM
Text: Schistosomiasis is a major neglected tropical disease that currently affects over 200 million. It is caused by different species of flatworms, such as Schistosoma mansoni. […] In addition, the fluorescence assay was also subject to fluorescence interference from compound library members. […] The assay followed the reduction of 5, 5'-dithiobis (2-nitrobenzoic acid) (DTNB) (Ellman's reagent) by NADPH and measured the increase in absorbance at 412 nm of the reaction product, TNB. […]
The whole screen tested about 360,000 compounds, of which about 11,000 (3.1%) were called active. About 4% were inconclusive and are not listed. Calls follow the shape of the dose curve; as a rule, active = well fitted inhibition curve with a large enough effect; inconclusive = small, poorly fitted or top-dose-only effect; inactive = no such curve, though single readings can be large or run the other way. Shown is part of a subset that was picked to be rich in actives.
# output must be one of YES (active), NO (inactive)

> print(dat)
                                   molecule  class.label
1  COc1cccc(CNC(=O)C(NS(=O)(=O)c2ccc3nc(C)sc3c2)C(C)C)c1 (centres undefined)           NO
2  CCOc1ccc(N(Cc2ccccc2)C(=O)c2nc(SCC)ncc2Cl)cc1           NO
3  CC1CCC2(CC1)N=C(c1ccccc1)C(=O)N2CC(=O)Nc1ccc(F)c(Cl)c1 (centres undefined)           NO
4  CN(C)S(=O)(=O)c1ccc(N/C=C(\[N+](=O)[O-])S(=O)(=O)c2ccccc2)cc1          YES
5  CCOC(=O)c1c(S(=O)(=O)N2CCCC(C(=O)NCc3cccc(C)c3)C2)c(C)n(C)c1C (centres undefined)           NO
6  Cc1oc2ncnc(N3CCCCC3)c2c1C(=O)N1CCN(c2cccc(Cl)c2)CC1           NO
7  COc1ccc(NC(=O)c2ccc3oc(=O)c(S(=O)(=O)c4ccc(F)cc4)cc3c2)c(OC)c1           NO
8  Cc1ccc(S(=O)(=O)N2CCCc3cc(NS(=O)(=O)c4cc(C)ccc4C)ccc32)cc1           NO

Query :: # fetch the recorded call for Cc1ccc(Nc2c(-c3ccc(C)cc3)nc3cnccn23)cc1 here
Result :: NO

Query :: Returns: the outcome recorded for COc1ccccc1CNC(=O)C(Cc1ccccc1)NS(=O)(=O)c1ccc2c(c1)oc(=O)n2C (centres undefined) in this assay.
Result :: NO

Query :: Entry Cc1cccc(NC(=O)C2CCCN2S(=O)(=O)c2cccc3nsnc23)c1C (centres undefined) : call = ?
Result :: NO

Query :: # outcome recorded in this test, key = CCOc1ccc(NC(=O)CN(Cc2ccccc2)S(=O)(=O)c2ccc(Cl)cc2)cc1
Result :: NO

Query :: For C/C=C\C=C\C(=O)N1CC2(CC(c3cccc(NC(=O)/C(C)=C\C)c3)=NO2)C[C@H]1C(N)=O (some centres undefined) , what call appears in the results of this test?
Result :: YES

Query :: GET /call?item= CCOc1ccc(N(Cc2ccccc2)C(=O)c2nc(S(C)(=O)=O)ncc2Cl)cc1 returns the recorded outcome of this test.
Result :: YES

---

Biological target: Schistosoma mansoni thioredoxin glutathione reductase (TGR)
Test: qHTS Assay for the Inhibitors of Schistosoma Mansoni Peroxiredoxins; also: nearly all actives have a fitted effect of over 60% in size
Details: purified TGR, DTNB reduction, TNB absorbance 405 nm; series mostly up to 114 µM
Among all 360,000 compounds or so, about 11,000 (3.1%) were called active. Another 4% or so got no clear call; they are omitted. The call rests on the fitted dose curve; in most records, active means well fitted inhibition curve with a large enough effect; inconclusive means small, poorly fitted or top-dose-only effect; inactive means no such curve, though single readings can be large or run the other way. This excerpt belongs to a sample that is enriched for actives.
Pick from active, inactive when you respond.

Solved entries:
> print(dat)
                                   compound  class.label
1      C/C(=N\NC(=O)c1ccc2ccccc2c1)c1cccnc1     inactive
2  COc1cc2nc(SCc3ccc(F)cc3)n3nc(CCn4c(C)nc5ccccc54)nc3c2cc1OC     inactive
3  COc1ccc(OC)c(NC(=O)CSC2=Nc3ccccc3C3=NC(CC(=O)NCCc4ccccc4)C(=O)N23)c1 (stereo not given)     inactive
4    CCOc1ccc(NC(=O)Cn2c(C)ccc(C#N)c2=O)cc1     inactive
5  CN(C)CCCn1c(-c2ccc(Cl)cc2)csc1=Nc1ccccc1     inactive
6     Cc1cc(NC(=O)CSc2nnnn2-c2ccc(F)cc2)no1     inactive
7  COc1ccc(CNC(=O)CC2Oc3ccc(C)cc3NC2=O)cc1 (stereo not given)     inactive
8  Cc1ccc(NS(=O)(=O)c2ccc(-c3ccc(=O)[nH]n3)o2)c(C)c1     inactive

Query :: Test call, this compound: Cc1nc(N2CCOCC2)c2c(C(=O)NCc3cccc(Cl)c3)c(C)oc2n1
Result :: inactive

Query :: What is the recorded call for this compound in the test? CC1CC(C)CN(CC(=O)Nc2ccc(S(N)(=O)=O)cc2)C1 (stereo not given)
Result :: inactive

Query :: // param item: Cc1cc(=O)[nH]c(N/N=C/c2ccc3c(c2)OCCO3)n1 ; yields the recorded call
Result :: active

Query :: Record lookup: outcome of this test for Cc1ccc(C(=O)NC(=S)Nc2ccccc2C)cc1 ?
Result :: active

Query :: Fill in: this test's call for CCOc1ccc(C2C3=C(CCCC3=O)N(CC(=O)O)C3=C2C(=O)CCC3)cc1 is ___
Result :: active

Query :: Which result was noted for this compound in the test: COCCNC(=O)c1ccc2c(c1)N=C(C)c1cc(C)ccc1S2
Result :: inactive

Query :: Which outcome did this test record for the compound COC(=O)C1=NN(c2ccccc2)C2C(=O)N(c3ccccc3OC)C(=O)C12 (stereo not given) ?
Result :: inactive

---

Biological target: Schistosoma mansoni thioredoxin glutathione reductase (TGR) (UniProt Q962Y6)
Assay: qHTS Assay for the Inhibitors of Schistosoma Mansoni Peroxiredoxins; also: nearly all actives have a fitted effect of over 60% in size; also: potency is read from the fitted curve at half-maximal effect
Settings: purified TGR, DTNB reduction, TNB absorbance 405 nm; series mostly up to 114 µM
Hit rate of the full screen: of about 360,000 compounds, about 11,000 (3.1%) were called active. Inconclusive results (about 4%) are left out. Shown is part of a subset that was picked to be rich in actives.
measure: Potency

> print(dat)
                                   compound       measurement
1  CCOC(=O)c1c(S(=O)(=O)N2CCCC(C(=O)NCc3ccc(F)cc3)C2)c(C)n(CC)c1C (stereo not drawn)          inactive
2  COc1ccc(-c2cc(NCc3ccc(F)cc3)n3cnnc3n2)cc1          inactive
3  Cc1ccc(NC(=O)C2CCN(S(=O)(=O)c3cc(-c4noc(C)n4)ccc3C)CC2)c(C)c1          inactive
4  COc1cc(NC(=O)CN2CCN(S(=O)(=O)c3ccc(Br)cc3)CC2)cc(OC)c1          inactive
5  O=c1cc(CO)oc(C(Nc2cccc(C(F)(F)F)c2)c2ccccn2)c1O (stereo not drawn)  11.2 µM (active)

Query :: # input compound: O=[N+]([O-])c1cccc(S(=O)(=O)NCc2ccccn2)c1 ; wanted: its Potency
Result :: inactive

Query :: Look up Potency for this compound: O=C(CSc1nnc(-c2ccc(NS(=O)(=O)c3ccccc3)cc2)o1)NCC1CCCO1 (stereo not drawn)
Result :: inactive

Query :: Tell me the measured Potency of O=C(CSc1nnc(-c2c[nH]c3ccccc23)o1)c1ccccc1 , please.
Result :: inactive
